Experiment: Volume of distribution at steady state in rat at 3 mg/kg, iv
Assay type: ADME, organism-based
Set-up: dose 3 mg/kg, route intravenous
Conditions: in vivo, read-out: Vdss
measured_attribute: Vd (L/kg)

# structure_string, measured_attribute, endpoint_result
rows = [
    ("Cc1cnc(Nc2ccc(F)cc2Cl)nc1-c1c[nH]c(C(=O)N[C@H](CO)c2cccc(Cl)c2)c1", "Vd", 4.9),
]

###

Test: Inhibition of GSK3
Labelling: Ki reported below 400 nM becomes fulfilled; at or above becomes not fulfilled.

# structure_string, class_name
records = [
    ("Cc1cnc(Nc2cccc3c2OC(F)(F)O3)nc1-c1c[nH]c(C(=O)N[C@H](CO)c2cccc(Cl)c2)c1", "fulfilled"),
    ("CCc1ccccc1Nc1ncc(C)c(-c2c[nH]c(C(=O)N[C@H](CO)c3ccccc3)c2)n1", "not fulfilled"),
    ("Cc1cnc(Nc2ccccc2Cl)nc1-c1c[nH]c(C(=O)N[C@H](CO)c2ccccc2)c1", "fulfilled"),
    ("Cc1cc(Cl)ccc1Nc1ncc(C)c(-c2c[nH]c(C(=O)N[C@H](CO)c3cccc(Cl)c3)c2)n1", "not fulfilled"),
    ("Cc1cnc(Nc2cccc3c2CCC3)nc1-c1c[nH]c(C(=O)N[C@H](CO)c2cccc(Cl)c2)c1", "fulfilled"),
    ("Cc1cnc(Nc2ccccc2)nc1-c1c[nH]c(C(=O)N[C@H](CO)c2cccc(Cl)c2)c1", "fulfilled"),
    ("Cc1cccc([C@@H](CO)NC(=O)c2cc(-c3nc(Nc4ccccc4)ncc3C)c[nH]2)c1", "fulfilled"),
    ("Cc1cnc(Nc2ccccc2O)nc1-c1c[nH]c(C(=O)N[C@H](CO)c2ccccc2)c1", "fulfilled"),
    ("Cc1cnc(Nc2ccccc2F)nc1-c1c[nH]c(C(=O)N[C@H](CO)c2ccccc2)c1", "fulfilled"),
    ("Cc1ccccc1Nc1ncc(C)c(-c2c[nH]c(C(=O)N[C@H](CO)c3cccc(Cl)c3)c2)n1", "fulfilled"),
    ("Cc1cnc(Nc2cccc3c2OCO3)nc1-c1c[nH]c(C(=O)N[C@H](CO)c2cccc(Cl)c2)c1", "fulfilled"),
    ("Cc1cnc(Nc2cccc(C)c2C)nc1-c1c[nH]c(C(=O)N[C@H](CO)c2cccc(Cl)c2)c1", "fulfilled"),
    ("Cc1cnc(Nc2ccc(Cl)cc2F)nc1-c1c[nH]c(C(=O)N[C@H](CO)c2cccc(Cl)c2)c1", "not fulfilled"),
    ("CCc1ccccc1Nc1ncc(C)c(-c2c[nH]c(C(=O)N[C@H](CO)c3cccc(Cl)c3)c2)n1", "fulfilled"),
]

###

Molecular target: Cyclin-dependent kinase 2 (Homo sapiens, UniProt P24941)
Under this convention, met denotes Ki strictly below 0.2 µM and not met denotes Ki at or above 0.2 µM.

# structure_string, class_name
records = [
    ("COc1cccc(Nc2ncc(C)c(-c3c[nH]c(C(=O)N[C@H](CO)c4cccc(Cl)c4)c3)n2)c1OC", "not met"),
    ("Cc1cnc(Nc2ccc(F)cc2Cl)nc1-c1c[nH]c(C(=O)N[C@H](CO)c2cccc(Cl)c2)c1", "not met"),
    ("Cc1cnc(Nc2cccc3c2OC(F)(F)O3)nc1-c1c[nH]c(C(=O)N[C@H](CO)c2cccc(Cl)c2)c1", "met"),
    ("Cc1cnc(Nc2ccccc2F)nc1-c1c[nH]c(C(=O)N[C@H](CO)c2ccccc2)c1", "met"),
    ("Cc1cnc(Nc2cccc3c2OCCO3)nc1-c1c[nH]c(C(=O)N[C@H](CO)c2cccc(Cl)c2)c1", "met"),
    ("Cc1cnc(Nc2ccccc2)nc1-c1c[nH]c(C(=O)N[C@H](CO)c2cccc(Cl)c2)c1", "not met"),
    ("Cc1cc(Cl)ccc1Nc1ncc(C)c(-c2c[nH]c(C(=O)N[C@H](CO)c3cccc(Cl)c3)c2)n1", "met"),
    ("Cc1cnc(Nc2ccc(Cl)cc2F)nc1-c1c[nH]c(C(=O)N[C@H](CO)c2cccc(Cl)c2)c1", "not met"),
    ("Cc1cnc(Nc2cccc3c2OCO3)nc1-c1c[nH]c(C(=O)N[C@H](CO)c2cccc(Cl)c2)c1", "not met"),
    ("Cc1cnc(Nc2cccc3c2CCC3)nc1-c1c[nH]c(C(=O)N[C@H](CO)c2cccc(Cl)c2)c1", "not met"),
    ("Cc1cnc(Nc2cccc(F)c2C)nc1-c1c[nH]c(C(=O)N[C@H](CO)c2cccc(Cl)c2)c1", "met"),
    ("Cc1cccc([C@@H](CO)NC(=O)c2cc(-c3nc(Nc4ccccc4)ncc3C)c[nH]2)c1", "met"),
    ("Cc1cnc(Nc2ccccc2C(F)(F)F)nc1-c1c[nH]c(C(=O)N[C@H](CO)c2ccccc2)c1", "not met"),
    ("Cc1cnc(Nc2cccc(C)c2C)nc1-c1c[nH]c(C(=O)N[C@H](CO)c2cccc(Cl)c2)c1", "met"),
    ("Cc1cnc(Nc2ccccc2O)nc1-c1c[nH]c(C(=O)N[C@H](CO)c2ccccc2)c1", "met"),
    ("Cc1cnc(Nc2ccccc2Cl)nc1-c1c[nH]c(C(=O)N[C@H](CO)c2ccccc2)c1", "not met"),
    ("CCc1ccccc1Nc1ncc(C)c(-c2c[nH]c(C(=O)N[C@H](CO)c3cccc(Cl)c3)c2)n1", "not met"),
    ("Cc1cnc(Nc2cccc3c2CCCC3)nc1-c1c[nH]c(C(=O)N[C@H](CO)c2cccc(Cl)c2)c1", "not met"),
]

###

Test: Solubility in pH 7.4 buffer
Assay type: physicochemical
measured_attribute: solubility (µM)

# structure_string, endpoint_result
data = [
    ("Cc1cnc(Nc2ccc(F)cc2Cl)nc1-c1c[nH]c(C(=O)N[C@H](CO)c2cccc(Cl)c2)c1", 10),
]

###

Biological target: Mitogen-activated protein kinase kinase kinase 14 (Homo sapiens)
Sequence (Q99558 whole entry): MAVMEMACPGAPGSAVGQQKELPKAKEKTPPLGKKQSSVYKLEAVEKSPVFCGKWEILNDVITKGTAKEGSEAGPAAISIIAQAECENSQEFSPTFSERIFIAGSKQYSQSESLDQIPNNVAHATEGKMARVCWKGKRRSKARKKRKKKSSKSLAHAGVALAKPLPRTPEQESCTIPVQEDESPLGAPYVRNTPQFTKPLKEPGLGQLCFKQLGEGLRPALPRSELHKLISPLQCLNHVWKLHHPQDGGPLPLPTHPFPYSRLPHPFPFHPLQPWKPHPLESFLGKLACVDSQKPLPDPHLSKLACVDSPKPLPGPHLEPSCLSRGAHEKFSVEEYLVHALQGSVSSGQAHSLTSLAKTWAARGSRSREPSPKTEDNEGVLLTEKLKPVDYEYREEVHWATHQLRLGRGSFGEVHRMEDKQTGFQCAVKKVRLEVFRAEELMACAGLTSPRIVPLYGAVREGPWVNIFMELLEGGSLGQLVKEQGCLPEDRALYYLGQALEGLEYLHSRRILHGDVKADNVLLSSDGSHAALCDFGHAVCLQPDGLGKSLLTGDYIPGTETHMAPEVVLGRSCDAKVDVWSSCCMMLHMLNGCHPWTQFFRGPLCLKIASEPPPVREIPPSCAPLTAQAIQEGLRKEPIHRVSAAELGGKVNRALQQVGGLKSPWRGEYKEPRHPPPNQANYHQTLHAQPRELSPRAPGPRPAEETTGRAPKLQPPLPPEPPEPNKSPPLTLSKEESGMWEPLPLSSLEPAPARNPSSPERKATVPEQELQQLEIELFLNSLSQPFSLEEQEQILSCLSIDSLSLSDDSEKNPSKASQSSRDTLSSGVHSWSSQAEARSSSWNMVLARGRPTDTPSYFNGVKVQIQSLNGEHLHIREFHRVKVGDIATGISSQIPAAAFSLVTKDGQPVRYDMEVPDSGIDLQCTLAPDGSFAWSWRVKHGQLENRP
Test: Inhibition of NIK
pKi: −log10 of the molar value.
measured_attribute: pKi

# structure_string, endpoint_result
data = [
    ("Cc1cnc(Nc2ccc(F)cc2Cl)nc1-c1c[nH]c(C(=O)N[C@H](CO)c2cccc(Cl)c2)c1", "< 5.30"),
]

###

Experiment: Half life in mouse at 5 mg/kg, iv
Format: ADME, organism-based
Parameters: dose 5 mg/kg, route intravenous
Conditions: in vivo

# structure_string, readout_units, half-life
measured = [
    ("Cc1cnc(Nc2ccc(F)cc2Cl)nc1-c1c[nH]c(C(=O)N[C@H](CO)c2cccc(Cl)c2)c1", "h", 1.6),
]

###

Experiment: Inhibition of GSK3
measured_attribute: Ki (nM)

# structure_string, limit_sign, endpoint_result
rows = [
    ("Cc1cnc(Nc2cccc(F)c2C)nc1-c1c[nH]c(C(=O)N[C@H](CO)c2cccc(Cl)c2)c1", "=", 1260),
    ("Cc1cnc(Nc2cccc3c2CCCC3)nc1-c1c[nH]c(C(=O)N[C@H](CO)c2cccc(Cl)c2)c1", "=", 667),
    ("COc1cccc(Nc2ncc(C)c(-c3c[nH]c(C(=O)N[C@H](CO)c4cccc(Cl)c4)c3)n2)c1OC", ">", 2500),
    ("Cc1cnc(Nc2cccc3c2OCCO3)nc1-c1c[nH]c(C(=O)N[C@H](CO)c2cccc(Cl)c2)c1", "=", 45),
]

###

Target: Mitogen-activated protein kinase kinase kinase 3 (Homo sapiens)
Sequence (Q99759 whole entry): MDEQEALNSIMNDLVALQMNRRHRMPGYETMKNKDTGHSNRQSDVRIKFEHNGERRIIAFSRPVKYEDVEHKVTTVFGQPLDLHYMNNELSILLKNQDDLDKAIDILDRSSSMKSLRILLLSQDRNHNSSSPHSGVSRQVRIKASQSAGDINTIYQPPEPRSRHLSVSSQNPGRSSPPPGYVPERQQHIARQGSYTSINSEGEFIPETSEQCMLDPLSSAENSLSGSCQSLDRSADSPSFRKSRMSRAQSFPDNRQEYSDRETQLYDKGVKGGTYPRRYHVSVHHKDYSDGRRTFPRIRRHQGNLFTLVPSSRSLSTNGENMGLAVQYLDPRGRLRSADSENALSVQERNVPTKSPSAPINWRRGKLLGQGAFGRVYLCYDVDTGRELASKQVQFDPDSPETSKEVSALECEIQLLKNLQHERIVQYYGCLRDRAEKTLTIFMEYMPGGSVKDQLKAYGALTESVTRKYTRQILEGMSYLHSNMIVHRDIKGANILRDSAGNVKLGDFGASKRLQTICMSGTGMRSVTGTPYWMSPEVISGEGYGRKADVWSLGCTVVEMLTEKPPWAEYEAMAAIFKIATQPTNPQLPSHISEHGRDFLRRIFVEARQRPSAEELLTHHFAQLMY
Assay: Inhibition of MEKK3
pKi: −log10 of the molar value.
measured_attribute: pKi

# structure_string, measured_attribute, endpoint_result
rows = [
    ("Cc1cnc(Nc2ccc(F)cc2Cl)nc1-c1c[nH]c(C(=O)N[C@H](CO)c2cccc(Cl)c2)c1", "pKi", "< 5.40"),
]

###

Assay: Plasma concentration in mouse at 33 mg/kg, po after 8 hrs
Format: ADME, organism-based
Set-up: dose 33 mg/kg, route oral

# structure_string, readout_units, concentration at 8 h
rows = [
    ("Cc1cnc(Nc2ccc(F)cc2Cl)nc1-c1c[nH]c(C(=O)N[C@H](CO)c2cccc(Cl)c2)c1", "ng/mL", 122),
]

###

Target: Focal adhesion kinase 1 (Homo sapiens)
Sequence (Q05397 whole entry): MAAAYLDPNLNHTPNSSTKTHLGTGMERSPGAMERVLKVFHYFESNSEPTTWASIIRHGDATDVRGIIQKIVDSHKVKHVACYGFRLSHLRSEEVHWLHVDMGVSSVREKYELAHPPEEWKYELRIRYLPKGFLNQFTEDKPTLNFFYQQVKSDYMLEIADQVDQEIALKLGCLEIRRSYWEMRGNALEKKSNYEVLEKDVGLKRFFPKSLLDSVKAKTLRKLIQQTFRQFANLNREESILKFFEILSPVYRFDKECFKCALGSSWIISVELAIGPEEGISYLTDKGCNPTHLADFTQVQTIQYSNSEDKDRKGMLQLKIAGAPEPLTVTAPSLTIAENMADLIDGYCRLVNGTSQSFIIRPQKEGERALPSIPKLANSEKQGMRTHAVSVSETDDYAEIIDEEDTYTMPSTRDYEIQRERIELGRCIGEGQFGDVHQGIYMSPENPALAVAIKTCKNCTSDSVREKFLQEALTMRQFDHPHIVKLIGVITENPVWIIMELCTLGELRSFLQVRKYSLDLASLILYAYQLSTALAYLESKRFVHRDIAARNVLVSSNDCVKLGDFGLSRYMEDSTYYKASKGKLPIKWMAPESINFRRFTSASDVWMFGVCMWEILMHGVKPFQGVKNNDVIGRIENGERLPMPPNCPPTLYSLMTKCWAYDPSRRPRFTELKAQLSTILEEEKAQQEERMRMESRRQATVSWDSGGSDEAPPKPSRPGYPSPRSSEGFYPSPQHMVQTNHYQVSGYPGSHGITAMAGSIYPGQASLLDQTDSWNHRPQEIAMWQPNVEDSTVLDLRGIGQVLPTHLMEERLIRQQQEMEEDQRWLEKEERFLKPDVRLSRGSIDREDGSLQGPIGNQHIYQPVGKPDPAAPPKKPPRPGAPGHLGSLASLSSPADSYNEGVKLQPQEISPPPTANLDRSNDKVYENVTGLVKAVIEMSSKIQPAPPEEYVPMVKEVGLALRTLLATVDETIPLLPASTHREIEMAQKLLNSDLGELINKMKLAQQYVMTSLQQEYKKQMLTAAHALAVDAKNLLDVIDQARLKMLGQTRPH
Assay: Inhibition of FAK
pKi: −log10 of the molar value.
measured_attribute: pKi

# structure_string, endpoint_result
measured = [
    ("Cc1cnc(Nc2ccc(F)cc2Cl)nc1-c1c[nH]c(C(=O)N[C@H](CO)c2cccc(Cl)c2)c1", "< 5.00"),
]

###

Target: RAC-gamma serine/threonine-protein kinase (Homo sapiens, UniProt Q9Y243)
Sequence (Q9Y243 whole entry): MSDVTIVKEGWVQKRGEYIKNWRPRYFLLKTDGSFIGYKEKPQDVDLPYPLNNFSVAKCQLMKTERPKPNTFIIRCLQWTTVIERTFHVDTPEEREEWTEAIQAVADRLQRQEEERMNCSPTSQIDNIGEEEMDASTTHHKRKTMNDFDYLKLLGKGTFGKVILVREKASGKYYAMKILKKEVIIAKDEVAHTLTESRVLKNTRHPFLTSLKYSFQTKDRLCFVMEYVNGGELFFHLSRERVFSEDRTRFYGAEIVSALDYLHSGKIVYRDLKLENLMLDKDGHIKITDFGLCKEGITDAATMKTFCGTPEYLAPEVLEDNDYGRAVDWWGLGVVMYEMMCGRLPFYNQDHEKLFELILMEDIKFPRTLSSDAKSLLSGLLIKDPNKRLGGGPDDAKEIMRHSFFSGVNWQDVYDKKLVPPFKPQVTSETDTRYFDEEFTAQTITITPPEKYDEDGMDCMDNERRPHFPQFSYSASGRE

# structure_string, target, Ki
rows = [
    ("Cc1cnc(Nc2ccc(F)cc2Cl)nc1-c1c[nH]c(C(=O)N[C@H](CO)c2cccc(Cl)c2)c1", "RAC-gamma serine/threonine-protein kinase (Homo sapiens, UniProt Q9Y243)", "> 4 µM"),
]

###

Biological target: UniProt P35968
Sequence (P35968 whole entry): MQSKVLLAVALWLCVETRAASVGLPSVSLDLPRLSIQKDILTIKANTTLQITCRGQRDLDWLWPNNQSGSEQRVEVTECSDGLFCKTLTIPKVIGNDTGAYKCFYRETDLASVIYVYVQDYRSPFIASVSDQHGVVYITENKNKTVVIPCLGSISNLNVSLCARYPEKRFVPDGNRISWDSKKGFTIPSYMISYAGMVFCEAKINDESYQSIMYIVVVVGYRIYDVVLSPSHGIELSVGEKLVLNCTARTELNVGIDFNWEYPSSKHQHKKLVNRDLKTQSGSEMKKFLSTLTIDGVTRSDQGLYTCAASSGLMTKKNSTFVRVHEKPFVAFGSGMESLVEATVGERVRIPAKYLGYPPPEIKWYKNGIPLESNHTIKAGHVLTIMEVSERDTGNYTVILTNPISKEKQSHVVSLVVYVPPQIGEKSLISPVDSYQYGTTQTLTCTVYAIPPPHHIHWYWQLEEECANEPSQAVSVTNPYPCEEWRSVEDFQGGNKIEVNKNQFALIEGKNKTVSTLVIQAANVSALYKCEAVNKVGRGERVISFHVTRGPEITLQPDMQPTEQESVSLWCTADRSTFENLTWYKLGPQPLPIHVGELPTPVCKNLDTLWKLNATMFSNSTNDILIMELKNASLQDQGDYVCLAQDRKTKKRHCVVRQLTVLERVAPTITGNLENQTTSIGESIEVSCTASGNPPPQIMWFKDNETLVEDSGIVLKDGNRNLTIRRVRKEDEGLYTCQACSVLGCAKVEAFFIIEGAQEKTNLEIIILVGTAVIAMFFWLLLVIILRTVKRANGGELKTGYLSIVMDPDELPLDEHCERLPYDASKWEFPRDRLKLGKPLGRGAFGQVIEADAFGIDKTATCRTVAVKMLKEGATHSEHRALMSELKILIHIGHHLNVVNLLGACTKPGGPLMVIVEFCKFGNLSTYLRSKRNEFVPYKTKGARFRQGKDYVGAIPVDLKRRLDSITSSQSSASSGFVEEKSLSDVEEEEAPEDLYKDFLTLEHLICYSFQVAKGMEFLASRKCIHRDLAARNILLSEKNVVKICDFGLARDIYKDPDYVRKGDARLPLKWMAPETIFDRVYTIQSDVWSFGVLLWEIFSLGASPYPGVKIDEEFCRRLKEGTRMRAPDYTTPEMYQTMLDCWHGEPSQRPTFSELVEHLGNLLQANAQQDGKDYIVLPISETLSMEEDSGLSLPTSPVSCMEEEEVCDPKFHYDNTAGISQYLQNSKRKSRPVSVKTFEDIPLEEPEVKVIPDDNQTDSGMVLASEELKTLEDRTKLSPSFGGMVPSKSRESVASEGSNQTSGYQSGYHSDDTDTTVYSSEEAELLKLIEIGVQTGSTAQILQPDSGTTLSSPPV

# structure_string, Ki
records = [
    ("Cc1cnc(Nc2ccc(F)cc2Cl)nc1-c1c[nH]c(C(=O)N[C@H](CO)c2cccc(Cl)c2)c1", "> 4 µM"),
]
